Value source: paper PMC6585649

- assayText: Multiple-dose
- Assay type: in vivo, human (healthy subjects)
- cond: human, plasma, oral, 30 mg, Cmax, steady state (day 7), 30 mg once-daily ER, nonfasting, n = 12, mean ± SD
assayEndpoint: Cmax (ng/mL)

[
  {
    "molecule": "CC[C@@H]1CN(C(=O)NCC(F)(F)F)C[C@@H]1c1cnc2cnc3[nH]ccc3n12 [Upadacitinib]",
    "reading": 79.5
  }
]

###

- Assay type: in vivo, human (healthy subjects)
- cond: human, plasma, oral, 30 mg, t1/2, single 30 mg ER, fasting, n = 12, mean ± SD
assayEndpoint: half-life (h)

[
  {
    "molecularString": "CC[C@@H]1CN(C(=O)NCC(F)(F)F)C[C@@H]1c1cnc2cnc3[nH]ccc3n12",
    "reading": 18.1
  }
]
